These measurements were taken from paper PMC8448819.

Biological target: T1, MIK2^ECD, extracellular LRR domain of MALE DISCOVERER 1-INTERACTING RECEPTOR-LIKE KINASE 2 (Arabidopsis thaliana, UniProt Q8VZG8 44-707)
T1 construct: also called MIK2^ECD-6×HIS
T1 sequence (looked up): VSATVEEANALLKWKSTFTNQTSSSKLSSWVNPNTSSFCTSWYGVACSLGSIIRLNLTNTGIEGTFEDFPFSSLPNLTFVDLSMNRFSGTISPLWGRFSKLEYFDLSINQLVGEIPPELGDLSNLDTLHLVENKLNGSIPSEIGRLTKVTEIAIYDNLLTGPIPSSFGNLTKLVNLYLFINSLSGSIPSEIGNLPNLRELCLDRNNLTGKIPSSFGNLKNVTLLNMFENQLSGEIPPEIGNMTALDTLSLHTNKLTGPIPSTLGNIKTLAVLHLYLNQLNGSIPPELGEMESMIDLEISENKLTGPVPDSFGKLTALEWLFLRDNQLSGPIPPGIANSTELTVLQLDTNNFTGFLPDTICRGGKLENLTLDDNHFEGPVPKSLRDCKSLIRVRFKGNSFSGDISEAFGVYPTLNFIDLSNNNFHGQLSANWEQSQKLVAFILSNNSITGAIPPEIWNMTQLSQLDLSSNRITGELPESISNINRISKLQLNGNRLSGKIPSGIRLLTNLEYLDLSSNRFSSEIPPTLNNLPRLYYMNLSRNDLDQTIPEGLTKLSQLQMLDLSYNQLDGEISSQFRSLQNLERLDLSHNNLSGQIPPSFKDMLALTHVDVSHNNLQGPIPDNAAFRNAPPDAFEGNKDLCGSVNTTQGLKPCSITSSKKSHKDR
Experiment: SPR
Settings: both partners purified
measuredParameter: Kd (µM)
Answer with a number only, understood to be in µM.

PVRSSQSSQAGGR (Synthetic peptide, unlabelled in ITC/SPR; an N-terminal TAMRA version was used for in vivo binding. Exact limits are in Supplementary Data 4 (not shown). Limits taken as the commonly used 13-mer …) [SCOOP12 peptide (SERINE-RICH ENDOGENOUS PEPTIDE 12)]    1.78

In the following, a different binder is considered.
q: Give the reported value of Kd for this record: PVRSAQASQAGGR (Synthetic peptide. Exact limits are in Supplementary Data 4 (not shown); same conventional 13-mer as m1, with both SxS-motif serines changed to alanine.) [SCOOP12^SS/AA peptide]
a: 3480
